- Study System: Protein cereblon/Eukaryotic translation initiation factor 4E (Homo sapiens) (UniProt P06730+Q96SW2)
- Sequence (P06730 whole entry, looked up): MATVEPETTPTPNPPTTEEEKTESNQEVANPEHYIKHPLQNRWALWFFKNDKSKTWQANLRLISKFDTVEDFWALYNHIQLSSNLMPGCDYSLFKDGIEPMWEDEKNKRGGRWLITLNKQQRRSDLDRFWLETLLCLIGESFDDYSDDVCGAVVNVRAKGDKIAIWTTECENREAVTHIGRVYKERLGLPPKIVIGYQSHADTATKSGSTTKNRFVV
- Sequence (Q96SW2 whole entry, looked up): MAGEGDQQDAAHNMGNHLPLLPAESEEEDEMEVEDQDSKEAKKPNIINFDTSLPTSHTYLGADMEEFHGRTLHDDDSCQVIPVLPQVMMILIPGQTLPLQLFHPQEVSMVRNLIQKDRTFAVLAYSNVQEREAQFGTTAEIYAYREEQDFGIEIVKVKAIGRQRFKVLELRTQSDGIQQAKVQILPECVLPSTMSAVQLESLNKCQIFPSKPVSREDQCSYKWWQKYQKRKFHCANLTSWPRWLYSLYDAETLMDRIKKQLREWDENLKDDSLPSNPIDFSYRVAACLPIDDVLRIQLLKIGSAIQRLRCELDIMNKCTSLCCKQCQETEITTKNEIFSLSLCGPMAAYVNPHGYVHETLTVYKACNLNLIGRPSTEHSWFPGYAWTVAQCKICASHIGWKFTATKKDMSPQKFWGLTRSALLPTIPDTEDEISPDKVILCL
- Experiment Notes: Protac activity at E3-liagse/eIF4E in human MDA-MB-231 cells assessed as reduction in eIF4E protein level at 25 to 200 uM after 24 to 72 hrs
- Assay type: cell-based
- Condition Description: dose 25-200 µM, time 24-72 hrs
Calls of active or inactive are those of the source. The rule behind the calls is not given here.
Measured Quantity: Activity

Nc1nc2c(c(=O)[nH]1)[n+](Cc1ccccc1)cn2[C@@H]1O[C@H](COP(=O)(O)OP(=O)(O)NCCCCCC(=O)Nc2cccc3c2CN(C2CCC(=O)NC2=O)C3=O)[C@@H](O)[C@H]1O (stereo partly drawn); inactive
Nc1nc2c(c(=O)[nH]1)[n+](Cc1ccccc1)cn2[C@@H]1O[C@H](COP(=O)(O)OP(=O)(O)NCCOCCOCCOCCC(=O)Nc2cccc3c2CN(C2CCC(=O)NC2=O)C3=O)[C@@H](O)[C@H]1O (stereo partly drawn); inactive
Cc1ncsc1-c1ccc(CNC(=O)C2C[C@H](O)CN2C(=O)[C@@H](NC(=O)CCCCCNP(=O)(O)OP(=O)(O)OC[C@H]2O[C@@H](n3c[n+](Cc4ccc(F)cc4)c4c(=O)[nH]c(N)nc43)[C@H](O)[C@@H]2O)C(C)(C)C)cc1 (stereo partly drawn); inactive
